molecular target: UniProt:P48067; assay: [3H]-(R)-NPTS radioligand binding assay using recombinant hGlyT1 expressing cell membranes; settings: 0.5 nM [3H]-(R)-NPTS, apparent Ki via Cheng-Prusoff, read-out: [3H]-(R)-NPTS bindung Ki
pKi: −log10 of the molar value. Structures can show the parent of a compound that is named as a salt.
Property label: pKi

{"Compound": "COc1cccc2c(N[C@@H](c3ccccc3)[C@@H]3CCCCN3)cc(C)nc12 [Example 54]", "Property label": "pKi", "Reported": "≥ 6.00"}
{"Compound": "Cc1cc(NCc2ccc(Cl)c(Cl)c2)c2cccc(OCCn3cccn3)c2n1 [Example 47, hydrochloride]", "Property label": "pKi", "Reported": "≥ 7.00"}
{"Compound": "Cc1cc(NCc2ccc(Cl)c(Cl)c2)c2cccc(F)c2n1 [Example 82]", "Property label": "pKi", "Reported": "≥ 6.00"}
{"Compound": "Cc1cc(NCc2ccc(Cl)c(Cl)c2)c2cccc(OC(F)(F)F)c2n1 [Example 56]", "Property label": "pKi", "Reported": "≥ 6.00"}
{"Compound": "Cc1cc(NCc2ccc(Cl)c(Cl)c2)c2cccc(N(S(C)(=O)=O)S(C)(=O)=O)c2n1 [Example 11]", "Property label": "pKi", "Reported": "≥ 5.00"}
{"Compound": "COc1cccc2c(NC(c3ccc(Cl)cc3)C3CC3)cc(C)nc12 (centres unmarked) [Example 72]", "Property label": "pKi", "Reported": "≥ 6.00"}
{"Compound": "CCS(=O)(=O)NCCOc1cccc2c(NCc3ccc(Cl)c(Cl)c3)cc(C)nc12 [Example 27]", "Property label": "pKi", "Reported": "≥ 8.00"}
{"Compound": "CCCOc1cccc2c(NCc3ccc(C(F)(F)F)c(Cl)c3)cc(C)nc12 [Example 45, hydrochloride]", "Property label": "pKi", "Reported": "≥ 5.00"}
{"Compound": "Cc1cc(NCc2ccc(Cl)c(Cl)c2)c2cccc(OCCNS(=O)(=O)c3cccnc3)c2n1 [Example 30]", "Property label": "pKi", "Reported": "≥ 8.00"}
{"Compound": "Cc1cc(NCc2ccc(Cl)c(Cl)c2)c2cccc(NS(=O)(=O)c3ccccc3)c2n1 [Example 8]", "Property label": "pKi", "Reported": "≥ 6.00"}
{"Compound": "Cc1cc(NCc2ccc(Cl)c(Cl)c2)c2cccc(NC(=O)c3ccccc3)c2n1 [Example 10]", "Property label": "pKi", "Reported": "≥ 6.00"}
{"Compound": "CN(C)c1cc(NCc2ccc(Cl)c(Cl)c2)c2ccccc2n1 [Example 95]", "Property label": "pKi", "Reported": "≥ 7.00"}
{"Compound": "Cc1cc(NCc2ccc(Cl)c(Cl)c2)c2cccc(N3CCNCC3)c2n1 [Example 18, dihydrochloride]", "Property label": "pKi", "Reported": "≥ 7.00"}
{"Compound": "COCCOc1cccc2c(NCc3ccc(Cl)c(Cl)c3)cc(C)nc12 [Example 49]", "Property label": "pKi", "Reported": "≥ 7.00"}
{"Compound": "C=CCN1CCCC[C@H]1[C@@H](Nc1cc(C)nc2c(OCCNC(=O)OC(C)(C)C)cccc12)c1ccccc1 [Example 33]", "Property label": "pKi", "Reported": "≥ 5.00"}
{"Compound": "Cc1cc(NCc2ccc(Cl)c(Cl)c2)c2cccc(OCCN3CCCC3)c2n1 [Example 52]", "Property label": "pKi", "Reported": "≥ 7.00"}
{"Compound": "Cc1cc(NCc2ccc(Cl)c(Cl)c2)c2cccc(OCCNS(=O)(=O)CC(C)C)c2n1 [Example 31]", "Property label": "pKi", "Reported": "≥ 8.00"}

====

Attribute: pIC50
biological target: UniProt P48067; assay: Glycine uptake in recombinant hGlyT1 expressing cells; details: hGlyT1c_5_CHO cells; [3H]-glycine uptake, 60-120 min
pIC50: −log10 of the molar value. Structures can show the parent of a compound that is named as a salt.
Property label: pIC50

{"Molecule": "Cc1cc(NCc2ccc(Cl)c(Cl)c2)c2cccc(N3CCOCC3)c2n1 [Example 6, hydrobromide]", "Measurement target": "UniProt P48067", "Reported": "≥ 6.00"}
{"Molecule": "Cc1ccc(S(=O)(=O)N2CCN(c3cccc4c(NCc5ccc(Cl)c(Cl)c5)cc(C)nc34)CC2)cc1 [Example 17]", "Measurement target": "UniProt P48067", "Reported": "≥ 5.00"}
{"Molecule": "COc1cccc2c(N[C@H](CN(C)C)c3ccc(Cl)cc3)cc(C)nc12 [Example 76]", "Measurement target": "UniProt P48067", "Reported": "≥ 7.00"}
{"Molecule": "COc1cccc2c(NC(CN(C)C)c3ccccc3)cc(C)nc12 (stereo not shown) [Example 71]", "Measurement target": "UniProt P48067", "Reported": "≥ 6.00"}

====

biological target: Human GlyT1c (Homo sapiens); test: Glycine uptake in recombinant hGlyT1 expressing cells; details: hGlyT1c_5_CHO cells; [3H]-glycine uptake, 60-120 min
Sequence (P48067 whole entry): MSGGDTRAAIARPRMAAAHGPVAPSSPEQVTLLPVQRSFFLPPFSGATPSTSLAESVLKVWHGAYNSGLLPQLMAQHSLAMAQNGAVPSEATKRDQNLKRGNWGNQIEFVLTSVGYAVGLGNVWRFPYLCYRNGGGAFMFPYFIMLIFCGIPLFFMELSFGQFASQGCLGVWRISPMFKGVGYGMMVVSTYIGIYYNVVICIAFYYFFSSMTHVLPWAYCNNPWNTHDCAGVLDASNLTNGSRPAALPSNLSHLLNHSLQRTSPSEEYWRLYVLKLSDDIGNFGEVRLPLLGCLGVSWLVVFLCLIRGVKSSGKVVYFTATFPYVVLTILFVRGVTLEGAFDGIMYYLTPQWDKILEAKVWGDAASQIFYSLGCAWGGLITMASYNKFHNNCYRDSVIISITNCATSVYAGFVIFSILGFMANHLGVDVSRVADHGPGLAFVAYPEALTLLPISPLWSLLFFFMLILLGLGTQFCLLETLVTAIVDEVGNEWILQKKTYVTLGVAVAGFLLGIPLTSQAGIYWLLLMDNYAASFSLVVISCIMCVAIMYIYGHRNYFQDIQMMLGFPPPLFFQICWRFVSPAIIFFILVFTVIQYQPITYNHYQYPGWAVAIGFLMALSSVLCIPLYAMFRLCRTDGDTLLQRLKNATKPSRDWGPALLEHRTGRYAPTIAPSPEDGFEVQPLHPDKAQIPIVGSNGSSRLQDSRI
pIC50: −log10 of the molar value. Structures can show the parent of a compound that is named as a salt.

{"Compound": "COc1cccc2c(NC(CN3CCOCC3)c3ccc(Cl)cc3)cc(C)nc12 (centres unmarked) [Example 65]", "Measurement target": "Human GlyT1c (Homo sapiens)", "pIC50": "≥ 5.00"}
{"Compound": "Cc1cc(NCc2ccc(Cl)c(Cl)c2)c2cccc(OCCNC(=O)OC(C)(C)C)c2n1 [Example 19]", "Measurement target": "Human GlyT1c (Homo sapiens)", "pIC50": "≥ 7.00"}
{"Compound": "COc1cccc2c(NCc3ccc(Cl)cc3)cc(C)nc12 [Example 84]", "Measurement target": "Human GlyT1c (Homo sapiens)", "pIC50": "≥ 6.00"}
{"Compound": "COc1cccc2c(NC(CN(C)C)c3ccc(Cl)cc3)cc(C)nc12 (racemic) [Example 68, dihydrochloride]", "Measurement target": "Human GlyT1c (Homo sapiens)", "pIC50": "≥ 7.00"}
{"Compound": "COc1cccc2c(NC(CN3CCCC3)c3ccc(Cl)cc3)cc(C)nc12 (centres unmarked) [Example 67]", "Measurement target": "Human GlyT1c (Homo sapiens)", "pIC50": "≥ 5.00"}
{"Compound": "Cc1cc(NCc2ccc(Cl)c(Cl)c2)c2cccc(OCCNS(C)(=O)=O)c2n1 [Example 21]", "Measurement target": "Human GlyT1c (Homo sapiens)", "pIC50": "≥ 7.00"}
{"Compound": "COc1cccc2c(N[C@@H](C)c3ccc(Cl)cc3)cc(C)nc12 [Example 57]", "Measurement target": "Human GlyT1c (Homo sapiens)", "pIC50": "≥ 4.00"}
{"Compound": "Cc1cc(NCc2ccc(Cl)c(Cl)c2)c2cccc(OC(F)(F)F)c2n1 [Example 56]", "Measurement target": "Human GlyT1c (Homo sapiens)", "pIC50": "≥ 7.00"}
{"Compound": "Cc1cc(N[C@@H](c2ccccc2)[C@@H]2CCCCN2)c2cccc(OCCNS(=O)(=O)c3cccnc3)c2n1 [Example 40, dihydrochloride]", "Measurement target": "Human GlyT1c (Homo sapiens)", "pIC50": "≥ 5.00"}
{"Compound": "Cc1cc(NCc2ccc(Cl)c(Cl)c2)c2cccc(OCCn3cccn3)c2n1 [Example 47, hydrochloride]", "Measurement target": "Human GlyT1c (Homo sapiens)", "pIC50": "≥ 6.00"}
{"Compound": "CSc1cccc2c(NCc3ccc(Cl)c(Cl)c3)cc(C)nc12 [Example 88]", "Measurement target": "Human GlyT1c (Homo sapiens)", "pIC50": "≥ 7.00"}
{"Compound": "Cc1cc(NCc2ccc(Cl)c(Cl)c2)c2cccc(N3CCNCC3)c2n1 [Example 18, dihydrochloride]", "Measurement target": "Human GlyT1c (Homo sapiens)", "pIC50": "≥ 6.00"}
{"Compound": "CC(=O)Nc1cccc2c(NCc3ccc(Cl)c(Cl)c3)cc(C)nc12 [Example 13]", "Measurement target": "Human GlyT1c (Homo sapiens)", "pIC50": "≥ 6.00"}
{"Compound": "COc1cccc2c(NC(CN3CCCCC3)c3ccccc3)cc(C)nc12 (centres unmarked) [Example 63]", "Measurement target": "Human GlyT1c (Homo sapiens)", "pIC50": "≥ 4.00"}
{"Compound": "Cc1cc(NCc2ccc(Cl)c(Cl)c2)c2cccc(OCc3ccccc3)c2n1 [Example 46]", "Measurement target": "Human GlyT1c (Homo sapiens)", "pIC50": "≥ 6.00"}
{"Compound": "Cc1cc(NCc2ccc(Cl)c(Cl)c2)c2cccc(Oc3ccccn3)c2n1 [Example 55]", "Measurement target": "Human GlyT1c (Homo sapiens)", "pIC50": "≥ 5.00"}
{"Compound": "COc1cccc2c(NC(CN3CCOCC3)c3ccccc3)cc(C)nc12 (centres unmarked) [Example 62]", "Measurement target": "Human GlyT1c (Homo sapiens)", "pIC50": "≥ 5.00"}

The measurements presented in this section are drawn from patent US8420670B2.
